For each record, write down the corresponding protein stability index.
B1: ZNF263 (parent)
chain: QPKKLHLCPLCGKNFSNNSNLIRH

Variants of: B1
ASSAY_EXPLANATION: protein stability index of a GFP-peptide fusion (GPS, HEK-293T) (PSI 1-6); higher = more stable;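 note: lentivirally expressed fusions sorted by FACS into six bins by GFP to DsRed ratio, PSI derived from sequencing read proportions per bin multiplied by bin number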
CONDITIONS_USED: c terminus: a fixed tail appended
When you answer, write just the number.

Qu. Item under review: FPKKLHLCPLCGKNFSNNSNLIRH [Q1F] . Reported protein stability index?
Ans. 2.21

Qu. Repeat for the following variant: QPKKLHLCPLCGKNFSNNSNLIWH [R23W]
Ans. 1.76

Qu. Repeat for the following variant: QPKKLHLCPLCGKNFSNGSNLIRH [N18G]
Ans. 1.8

Qu. Repeat for the following variant: QPKKLHLCPLCGKNYSNNSNLIRH [F15Y]
Ans. 2.46

Qu. Repeat for the following variant: QPYKLHLCPLCGKNFSNNSNLIRH [K3Y]
Ans. 2.05

Qu. Repeat for the following variant: QPKKLHLCPLCTKNFSNNSNLIRH [G12T]
Ans. 3.13

Qu. Repeat for the following variant: QPKKLHLCPLCGKNFSNNSNLFRH [I22F]
Ans. 2.47

Qu. Repeat for the following variant: QPKKLHLCPLCGKNFSNVSNLIRH [N18V]
Ans. 2.86

Qu. Repeat for the following variant: QPKKLHLCPWCGKNFSNNSNLIRH [L10W]
Ans. 2.38

Qu. Repeat for the following variant: QPKKLHLCPLCGKNFSNNSNNIRH [L21N]
Ans. 2.44

Qu. Repeat for the following variant: QPKVLHLCPLCGKNFSNNSNLIRH [K4V]
Ans. 2.62

Qu. Repeat for the following variant: IPKKLHLCPLCGKNFSNNSNLIRH [Q1I]
Ans. 2.61

Qu. Repeat for the following variant: QPKKLHLCPLYGKNFSNNSNLIRH [C11Y]
Ans. 1.68

Qu. Repeat for the following variant: QPKKLHLCPLCGKNFLNNSNLIRH [S16L]
Ans. 2.34

Qu. Repeat for the following variant: QPKKLHLCPLCGKNFWNNSNLIRH [S16W]
Ans. 2.09

Qu. Repeat for the following variant: QPKKLHLCPACGKNFSNNSNLIRH [L10A]
Ans. 2.5

Qu. Repeat for the following variant: QPKKLHLCPLCGKNFSNNSNLIRF [H24F]
Ans. 2.44

Qu. Repeat for the following variant: QPKKLTLCPLCGKNFSNNSNLIRH [H6T]
Ans. 3.08

Qu. Repeat for the following variant: QPKKLHMCPLCGKNFSNNSNLIRH [L7M]
Ans. 2.59

Qu. Repeat for the following variant: QPKKLHLCPLCGKNFSNNSNLIRS [H24S]
Ans. 2.4

Qu. Repeat for the following variant: QPKKLHLCPLCGKNFDNNSNLIRH [S16D]
Ans. 2.72

Qu. Repeat for the following variant: QPKKLHLCPLCGKNFSNNVNLIRH [S19V]
Ans. 2.43
